# PROTOCOL NOTES: small-molecule binders of probe aLefty1, primary screen, biochemical, small-molecule microarray, 635/667 nm fluorescence (AID 1153);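 also: score merges spot fluorescence with signal-to-noise ratio from the scanned slide images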
# STUDY CONDITIONS: higher = more signal
Label rule, in plain words: composite z-score of -0.001 and up is Yes, under -0.001 is No.

COc1ccc(CCNC(=O)[C@@]2(Cc3ccccc3I)c3ccccc3C(=O)N(Cc3ccccc3Cl)[C@H]2c2ccc(CO)cc2)cc1 :: Yes
C=CCC(OC(C)=O)[C@@H]1[C@@H](N(Cc2ccc(-c3ccccc3)cc2)C(=O)c2ccc(C)cc2)c2cc(OCCCO)ccc2N1C(=O)Cc1ccc2ccccc2c1 (stereo partly specified) :: No

With those in mind, consider the next compound.
Q. Hello, I need to know if "CCCC=C(CCC)[C@@H](NC(=O)CCc1ccccc1)c1ccc(C(F)(F)F)cc1" has measured composite z-score not below -0.001. Thanks!
A. Yes

---

# PROTOCOL NOTES: small-molecule microarray binders of probe aNog, primary screen, biochemical, biotinylated probe, 635/667 nm fluorescence (AID 1115);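 also: probe is biotinylated aNog protein used at 0.15 µg/mL for 1 h at 4 C; z-score combines 667 nm fluorescence of each spot with its signal to noise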
# STUDY CONDITIONS: higher = more signal
MEASUREMENT NAME: composite z-score
The answer should be written as a number, with no unit following it.

In the examples that follow, each entry is paired with its recorded composite z-score.
NCCCCCNC(=O)[C@@H]1C[C@@H]2C(=O)N3CCC[C@H]3C(=O)N2[C@@H]1c1ccc(O)cc1 :: -0.477
C=CCNC(=O)[C@@H]1[C@H]2C(=O)O[C@H](c3ccccc3)[C@H](c3ccccc3)N2[C@H](c2ccc(O)cc2)[C@@]12C(=O)Nc1ccc(C#CCC(C(=O)OC)C(=O)OC)cc12 :: 0.187
Cc1cccc([C@H]2C[C@H]3C(Br)=C[C@@H]2C(=O)[C@]32CO2)c1 :: -0.0784
COCCOC(=O)N1C(=O)[C@@]2(c3cc(C#CC4(O)CCCCCC4)ccc31)[C@H](C(=O)N1CCN(c3ncccn3)CC1)[C@H]1C(=O)O[C@H](c3ccccc3)[C@H](c3ccccc3)N1[C@@H]2c1ccccc1OCCO :: -0.263
COC(=O)[C@@]1(Cc2ccc(OC)cc2)[C@H]2c3cc(C(=O)N4CCCC4)n(Cc4ccc(S(C)(=O)=O)cc4)c3C[C@H]2CN1C(=O)c1ccccc1 :: -0.121
CCOC(=O)C1=CCC(c2ccco2)N(S(=O)(=O)c2ccc(C)cc2)C1 (centres undefined) :: -0.423

The reported composite z-score of the compound "C=C(/C(=C/C[C@@H](OC(C)=O)c1ccc(CO)o1)c1cc(C(=O)OC)ccc1OC)C(C)C" was 0.141

Recorded composite z-score (compound "C=CCN1C(=O)[C@@]2(O[C@@H](CCO)[C@H]([Si](C)(C)c3ccc(OC)cc3)[C@H]2C)c2cc(N3CCOC3=O)ccc21" ): -0.0239

Record summary for "CN(C)C(=O)[C@@]1(Cc2ccccc2)COC(c2ccc(OCCCO)cc2)=N1" : reported composite z-score = -0.646

"CCOC(=O)C[C@H]1[C@H](OC(=O)c2ccc(C(=O)c3ccccc3)cc2)[C@@H](NC(=O)CC(C)C)c2cc(OCCCO)ccc2N1C(=O)Cc1ccc(OC)cc1" has a reported composite z-score of 0.0437

Entry "O=C1O[C@H](c2ccccc2)[C@H](c2ccccc2)N2[C@H]1[C@@H](C(=O)N1CCCCCCC1)[C@]1(C(=O)Nc3ccc(C#CC4(O)CCCCCC4)cc31)[C@H]2c1ccc(O)cc1" ; composite z-score = 3.1

Entry under test: "COc1ccc(NC(=O)O[C@H]2[C@@H]3OC(=O)[C@H](Cc4cccc(Br)c4)C/C=C/C[C@@H](Cc4cccc(Br)c4)C(=O)O[C@H]3[C@@H](OC)O[C@@H]2CO)cc1" . Its composite z-score was 0.325

Notebook: CN1C(=O)C2C=CC(C(O)c3cc(C(F)(F)F)cc(C(F)(F)F)c3)N(Nc3ccccc3)C2C1=O (centres undefined) , composite z-score read as 0.369

The recorded composite z-score for entry "C=CCNC(=O)[C@H]1[C@@H]2C(=O)O[C@@H](c3ccccc3)[C@@H](c3ccccc3)N2[C@@H](c2ccc(O)cc2)[C@]12C(=O)N(C(=O)OCCOC)c1ccc(C#CCC(C(=O)OC)C(=O)OC)cc12" equals 0.0213
